The values you see were collected from ChEMBL document CHEMBL3272278.

Readings of log(1/ED50) for the listed compounds
# Species on record: Mus musculus
# MEASUREMENT_DESCRIPTION: Sedative activity in mouse
# Assay type: functional
READOUT_TYPE: log(1/ED50)

[[record]]
compound = "O=C1CN=C(c2ccccc2F)c2cc([N+](=O)[O-])ccc2N1"
readout_type = "log(1/ED50)"
value_measured = 1.8736

[[record]]
compound = "CN1C(=O)CN=C(c2ccccc2)c2cc(C#N)ccc21"
readout_type = "log(1/ED50)"
value_measured = 1.1382

[[record]]
compound = "Cc1cc(C)c2c(c1)C(c1ccccc1)=NCC(=O)N2"
readout_type = "log(1/ED50)"
value_measured = -0.2316

[[record]]
compound = "O=C1CN=C(c2cccc([N+](=O)[O-])c2)c2cc([N+](=O)[O-])ccc2N1"
readout_type = "log(1/ED50)"
value_measured = -0.0888

[[record]]
compound = "O=C1CN=C(c2ccccc2)c2cc(C(F)(F)F)ccc2N1"
readout_type = "log(1/ED50)"
value_measured = 1.4829

[[record]]
compound = "CN(C)c1ccc2c(c1)C(c1ccccc1)=NCC(=O)N2C"
readout_type = "log(1/ED50)"
value_measured = 0.2908

[[record]]
compound = "CSc1ccc2c(c1)C(c1ccccc1)=NCC(=O)N2C"
readout_type = "log(1/ED50)"
value_measured = 0.7724

[[record]]
compound = "O=C1CN=C(c2ccccc2F)c2cc(Cl)ccc2N1"
readout_type = "log(1/ED50)"
value_measured = 0.858

[[record]]
compound = "O=C1CN=C(c2cccc(F)c2)c2cc(Cl)ccc2N1"
readout_type = "log(1/ED50)"
value_measured = 0.159

[[record]]
compound = "CN1C(=O)CN=C(c2ccccc2C(F)(F)F)c2cc([N+](=O)[O-])ccc21"
readout_type = "log(1/ED50)"
value_measured = 0.8609

[[record]]
compound = "O=C1CN=C(c2ccccc2)c2ccc(C(F)(F)F)cc2N1"
readout_type = "log(1/ED50)"
value_measured = -0.1703

[[record]]
compound = "CN1C(=O)CN=C(c2ccccc2Cl)c2cc([N+](=O)[O-])ccc21"
readout_type = "log(1/ED50)"
value_measured = 1.0407

[[record]]
compound = "O=C1CN=C(c2ccccc2)c2cc([N+](=O)[O-])ccc2N1"
readout_type = "log(1/ED50)"
value_measured = 1.2726

[[record]]
compound = "CN1C(=O)CN=C(c2ccccc2F)c2cc([N+](=O)[O-])ccc21"
readout_type = "log(1/ED50)"
value_measured = 2.4955

[[record]]
compound = "Cc1cc([N+](=O)[O-])cc2c1NC(=O)CN=C2c1ccccc1"
readout_type = "log(1/ED50)"
value_measured = 1.1688

[[record]]
compound = "N#Cc1ccc2c(c1)C(c1ccccc1)=NCC(=O)N2"
readout_type = "log(1/ED50)"
value_measured = 0.5416

[[record]]
compound = "O=C1CN=C(c2ccccc2Cl)c2cc(Cl)ccc2N1"
readout_type = "log(1/ED50)"
value_measured = 0.4842

[[record]]
compound = "N#Cc1ccc2c(c1)C(c1ccccc1F)=NCC(=O)N2"
readout_type = "log(1/ED50)"
value_measured = 0.5705

[[record]]
compound = "O=C1CN=C(c2ccccc2C(F)(F)F)c2cc(C(F)(F)F)ccc2N1"
readout_type = "log(1/ED50)"
value_measured = 1.0934

[[record]]
compound = "O=C1CN=C(c2ccccc2F)c2cc(Br)ccc2N1"
readout_type = "log(1/ED50)"
value_measured = 1.5223

[[record]]
compound = "O=C1CN=C(c2ccccc2)c2ccccc2N1"
readout_type = "log(1/ED50)"
value_measured = 0.1968

[[record]]
compound = "O=C1CN=C(c2ccccc2)c2cccc([N+](=O)[O-])c2N1"
readout_type = "log(1/ED50)"
value_measured = -0.2503

[[record]]
compound = "CN1C(=O)CN=C(c2ccccc2F)c2cc(F)ccc21"
readout_type = "log(1/ED50)"
value_measured = 0.1457

[[record]]
compound = "O=C1CN=C(c2ccccc2)c2cc(F)ccc2N1"
readout_type = "log(1/ED50)"
value_measured = 0.2287

[[record]]
compound = "O=C1CN=C(c2ccccc2)c2cc(Br)ccc2N1"
readout_type = "log(1/ED50)"
value_measured = 1.1002

[[record]]
compound = "O=C1CN=C(c2ccccc2)c2cc(Cl)cc(Cl)c2N1"
readout_type = "log(1/ED50)"
value_measured = 0.3081

[[record]]
compound = "CN1C(=O)CN=C(c2ccccc2F)c2ccccc21"
readout_type = "log(1/ED50)"
value_measured = 0.1271

[[record]]
compound = "C[S+]([O-])c1ccc2c(c1)C(c1ccccc1)=NCC(=O)N2 (centres undefined)"
readout_type = "log(1/ED50)"
value_measured = 0.2313

[[record]]
compound = "CN1C(=O)CN=C(c2ccc(Cl)cc2)c2cc(Cl)ccc21"
readout_type = "log(1/ED50)"
value_measured = 0.5037


----------
# Species on record: Mus musculus
# MEASUREMENT_DESCRIPTION: Sedative activity in mouse
# Assay type: functional
READOUT_TYPE: log(1/ED50)

[[record]]
smiles_input = "COc1ccccc1C1=NCC(=O)Nc2ccc(Cl)cc21"
value_measured = 0.0007

[[record]]
smiles_input = "O=C1CN=C(c2ccccc2Br)c2cc(Cl)ccc2N1"
value_measured = 0.8443

[[record]]
smiles_input = "CN1C(=O)CN=C(c2ccccc2)c2cc([N+](=O)[O-])ccc21"
value_measured = 1.4698

[[record]]
smiles_input = "CN(C)c1ccc2c(c1)C(c1ccccc1Cl)=NCC(=O)N2C"
value_measured = 0.3391

[[record]]
smiles_input = "O=C1CN=C(c2ccccc2C(F)(F)F)c2cc([N+](=O)[O-])ccc2N1"
value_measured = 0.5428

[[record]]
smiles_input = "COc1cc2c(cc1Br)C(c1ccccc1)=NCC(=O)N2"
value_measured = 0.3616

[[record]]
smiles_input = "Cc1ccccc1C1=NCC(=O)Nc2ccc(Cl)cc21"
value_measured = 0.2779

[[record]]
smiles_input = "CN1C(=O)CN=C(c2ccccc2F)c2cc(Cl)ccc21"
value_measured = 1.4807

[[record]]
smiles_input = "CSc1ccc2c(c1)C(c1ccccc1)=NCC(=O)N2"
value_measured = 0.2073

[[record]]
smiles_input = "CN1C(=O)CN=C(c2ccccc2)c2cc(Cl)ccc21"
value_measured = 0.9769

[[record]]
smiles_input = "CN1C(=O)CN=C(c2ccccc2Cl)c2cc(Cl)ccc21"
value_measured = 0.9016

